# assayTarget: T1, human SEMA4A expressed on cells (UniProt ID Q9H3S1, isoform 1) (human, UniProt Q9H3S1 33-761)
# T1 sequence: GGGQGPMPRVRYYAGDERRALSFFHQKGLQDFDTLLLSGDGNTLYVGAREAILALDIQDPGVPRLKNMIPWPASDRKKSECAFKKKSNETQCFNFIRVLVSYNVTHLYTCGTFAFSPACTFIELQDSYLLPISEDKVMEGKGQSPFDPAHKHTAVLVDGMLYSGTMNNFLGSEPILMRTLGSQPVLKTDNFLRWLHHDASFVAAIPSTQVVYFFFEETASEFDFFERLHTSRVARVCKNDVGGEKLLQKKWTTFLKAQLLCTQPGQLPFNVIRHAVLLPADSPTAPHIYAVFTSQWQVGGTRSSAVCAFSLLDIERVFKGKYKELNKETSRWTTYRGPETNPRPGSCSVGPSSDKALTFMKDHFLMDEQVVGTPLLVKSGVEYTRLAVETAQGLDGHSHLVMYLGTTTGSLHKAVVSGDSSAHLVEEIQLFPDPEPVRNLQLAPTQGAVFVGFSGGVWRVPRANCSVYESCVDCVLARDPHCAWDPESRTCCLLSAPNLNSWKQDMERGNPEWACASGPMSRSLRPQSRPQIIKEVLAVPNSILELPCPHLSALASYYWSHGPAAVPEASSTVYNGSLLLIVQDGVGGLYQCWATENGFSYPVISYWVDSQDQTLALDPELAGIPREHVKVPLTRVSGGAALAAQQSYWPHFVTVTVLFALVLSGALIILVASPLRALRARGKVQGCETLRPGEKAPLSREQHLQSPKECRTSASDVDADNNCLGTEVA
# test: cell-based or functional assay
parameter: Average KARPAS 25 IC50 [pM], cell kill (pM)
Numeric answer only, unit pM assumed.

Example cases with answers are listed next.
input: Requested read-out: Average KARPAS 25 IC50 [pM], cell kill. Entry: 5Hg2-5Lg2 human Alya IgG1 conjugated to McMMAF (antibody, V domains shown, McMMAF on the engineered cysteines 239iCys and S442C (EU numbering) of the heavy constant region, Antibody-drug conjugate; human IgG1 Alya constant; also called 5Hg2/5Lg2-McMMAF) VH: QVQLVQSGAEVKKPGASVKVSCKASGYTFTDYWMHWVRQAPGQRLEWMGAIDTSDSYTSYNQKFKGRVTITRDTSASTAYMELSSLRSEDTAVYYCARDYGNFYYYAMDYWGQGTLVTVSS VL: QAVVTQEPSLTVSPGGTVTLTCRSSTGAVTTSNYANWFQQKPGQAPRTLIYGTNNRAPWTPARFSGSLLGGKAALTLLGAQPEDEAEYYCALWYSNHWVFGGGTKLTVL
output: 181

input: Param item = 5Hg2-5Lg3 human Alya IgG1 conjugated to McMMAF (antibody, V domains shown, McMMAF on the engineered cysteines 239iCys and S442C (EU numbering) of the heavy constant region, Antibody-drug conjugate; human IgG1 Alya constant) VH: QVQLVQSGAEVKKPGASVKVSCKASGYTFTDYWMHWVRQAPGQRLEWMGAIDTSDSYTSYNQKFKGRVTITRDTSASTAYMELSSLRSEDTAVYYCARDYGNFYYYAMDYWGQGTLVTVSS VL: QTVVTQEPSFSVSPGGTVTLTCRSSTGAVTTSNYANWYQQTPGQAPRTLIYGTNNRAPGVPDRFSGSILGNKAALTITGAQADDESDYYCALWYSNHWVFGGGTKLTVL ; retrieve measured Average KARPAS 25 IC50 [pM], cell kill.
output: 316

input: Could you share which Average KARPAS 25 IC50 [pM], cell kill value was measured for 5Hg1-5Lg1 human Alya IgG1 conjugated to McMMAF (antibody, V domains shown, McMMAF on the engineered cysteines 239iCys and S442C (EU numbering) of the heavy constant region, Antibody-drug conjugate; human IgG1 Alya constant; also called 5Hg1/5Lg1-McMMAF) VH: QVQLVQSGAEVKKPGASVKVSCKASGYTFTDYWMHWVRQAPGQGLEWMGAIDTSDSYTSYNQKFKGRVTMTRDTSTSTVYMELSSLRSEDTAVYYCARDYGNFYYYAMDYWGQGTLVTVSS VL: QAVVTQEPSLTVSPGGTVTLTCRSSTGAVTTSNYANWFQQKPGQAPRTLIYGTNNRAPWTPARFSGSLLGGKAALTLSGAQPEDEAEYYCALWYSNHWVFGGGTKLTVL ?
output: 625

Next:
input: So what's the measured Average KARPAS 25 IC50 [pM], cell kill for this one? 5Hg1-5Lg2 human Alya IgG1 conjugated to McMMAF (antibody, V domains shown, McMMAF on the engineered cysteines 239iCys and S442C (EU numbering) of the heavy constant region, Antibody-drug conjugate; human IgG1 Alya constant) VH: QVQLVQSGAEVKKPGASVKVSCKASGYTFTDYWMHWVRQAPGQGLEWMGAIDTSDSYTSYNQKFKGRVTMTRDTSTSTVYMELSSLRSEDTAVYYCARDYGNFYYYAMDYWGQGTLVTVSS VL: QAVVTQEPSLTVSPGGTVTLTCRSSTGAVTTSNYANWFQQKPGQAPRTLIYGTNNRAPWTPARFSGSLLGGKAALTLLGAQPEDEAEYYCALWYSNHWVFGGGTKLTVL
output: 317

input: For the binder shown here, mouse 5E3 as human Alya IgG1 conjugated to McMMAF (antibody, V domains shown, McMMAF on the engineered cysteines 239iCys and S442C (EU numbering) of the heavy constant region, Antibody-drug conjugate; human IgG1 Alya constant, drug-to-antibody ratio of four; also called Mouse 5E3-McMMAF) VH: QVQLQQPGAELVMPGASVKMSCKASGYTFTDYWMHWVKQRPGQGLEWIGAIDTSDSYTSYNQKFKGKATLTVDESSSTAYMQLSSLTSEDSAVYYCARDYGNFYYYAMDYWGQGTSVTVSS VL: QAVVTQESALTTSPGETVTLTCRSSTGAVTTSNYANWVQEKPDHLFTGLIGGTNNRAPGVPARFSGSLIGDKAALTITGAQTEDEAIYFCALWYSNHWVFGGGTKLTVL , give the reported Average KARPAS 25 IC50 [pM], cell kill.
output: 126

input: Which Average KARPAS 25 IC50 [pM], cell kill value is on record for 5Hg2-5Lg1 human Alya IgG1 conjugated to McMMAF (antibody, V domains shown, McMMAF on the engineered cysteines 239iCys and S442C (EU numbering) of the heavy constant region, Antibody-drug conjugate; human IgG1 Alya constant) VH: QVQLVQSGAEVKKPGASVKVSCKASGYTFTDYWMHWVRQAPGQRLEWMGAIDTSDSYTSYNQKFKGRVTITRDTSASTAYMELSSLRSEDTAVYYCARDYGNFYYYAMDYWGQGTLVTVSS VL: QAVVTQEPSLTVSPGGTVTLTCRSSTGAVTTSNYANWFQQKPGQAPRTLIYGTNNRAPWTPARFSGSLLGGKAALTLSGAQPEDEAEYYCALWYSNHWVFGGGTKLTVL ?
output: 228
